The entries below are paired with their reported pIC50.
System: PC-3
Assay: Cytotoxicity against apoptotic-sensitive human PC3 cells assessed as growth inhibition after 72 hrs by MTT-based colorimetric assay
Assay type: functional, cell-based
Conditions: Homo sapiens, PC-3, 72 h
pIC50 here is simply -log10 of the concentration when that concentration is written in mol/L.

Known pIC50 results, listed for orientation:
{"structure-notation": "C=CCCCCCOc1ncc(-c2ccccc2OCCCCC=C)n1C", "pIC50": 4.15}
{"structure-notation": "COc1ccc2c(c1)-c1cnc(n1C)OCCCCCCCCO2", "pIC50": 4.40}
{"structure-notation": "C=CCCOc1ncc(-c2ccccc2OC)n1C", "pIC50": 4.60}
{"structure-notation": "C=CCCCCOc1ccccc1-c1cnc(S(=O)(=O)c2ccccc2)n1C", "pIC50": 4.48}
{"structure-notation": "C=CCCCCOc1ccccc1-c1cnc(OCCOCC=C)n1C", "pIC50": 4.44}

Endpoint output: pIC50 of COc1ccccc1-c1cnc(OCCCc2ccccc2)n1C . Value? 4.57

Then what about the molecule C=CCCCCOc1ncc(-c2cc(Cl)ccc2OC)n1C ? 4.49

Please give the result for C=CCCCCOc1cc2ccccc2cc1-c1cnc(OCCCCC=C)n1C too. 4.42

Moving on to Cc1ccc2c(c1)-c1cnc(n1C)OCCCCCCCCO2 4.44

Next up: C=CCCCCOc1ncc(-c2cc(C(F)(F)F)ccc2OC)n1C 4.24

Try this molecule next: Cn1c2cnc1OCCCCCCCCCCOc1cc3ccccc3cc1-2 4.60

Repeat with C=CCCCCOc1ccc(C)cc1-c1cnc(OCCC=C)n1C 4.23

Now give it for C=CCCCCOc1ccccc1-c1cnc(OCCC=C)n1C too. 4.72

// same read-out, input: C=CCCCCOc1ncc(-c2ccccc2OC)n1C 4.62

Same for C#CCCCCOc1ncc(-c2ccccc2OC)n1C 4.68

Then this molecule: Cn1c2cnc1OCCCCCCCCOc1ccc(F)cc1-2 4.28

----------
Test system: A549
Experiment: Cytotoxicity against apoptotic-resistant human A549 cells assessed as growth inhibition after 72 hrs by MTT-based colorimetric assay
Format: functional, cell-based
Details: Homo sapiens, A549, 72 h
recorded-metric: IC50 (µM)
Form entry: value (µM) — number only.

Completed entries (count: 5):
{"structure-notation": "C=CCCCCOc1ncc(-c2ccc(Cl)cc2OC)n1C", "reading-unit": "µM", "IC50": 47}
{"structure-notation": "C=CCCOc1ccccc1-c1cnc(S(=O)(=O)c2ccccc2)n1C", "reading-unit": "µM", "IC50": 73}
{"structure-notation": "C=CCCCCOc1ccc(OC)cc1-c1cnc(OCCC=C)n1C", "reading-unit": "µM", "IC50": 43}
{"structure-notation": "Cn1c2cnc1OCCCCCCCCCCCOc1ccccc1-2", "reading-unit": "µM", "IC50": 36}
{"structure-notation": "COc1ccc(C)cc1-c1cnc(OCCCCc2ccccc2)n1C", "reading-unit": "µM", "IC50": 40}

Entry C=CCCCCOc1ccccc1-c1cnc(OC)n1C has what IC50? 80

----------
Test system: PC-3
Test: Cytotoxicity against apoptotic-sensitive human PC3 cells assessed as growth inhibition after 72 hrs by MTT-based colorimetric assay
Format: functional, cell-based
Details: Homo sapiens, PC-3, 72 h
recorded-metric: IC50

{"structure-notation": "COc1ccccc1-c1cnc(OC)n1C", "IC50": "> 100 µM"}
{"structure-notation": "Cn1c2cnc1OCCCCCCCCOc1cc3ccccc3cc1-2", "IC50": "25 µM"}
{"structure-notation": "Cn1c2cnc1OCCCCCCCCCOc1ccccc1-2", "IC50": "61 µM"}
{"structure-notation": "C=CCCCCOc1nc(-c2ccccc2OC)cn1C", "IC50": "86 µM"}

Recorded IC50 for C=CCCCCOc1cc(F)ccc1-c1cnc(OCCC=C)n1C , please? 64 µM

What do you have for CCCCOc1ncc(-c2ccccc2OC)n1C ? 71 µM

And for Cn1c2cnc1OCC/C=C\CCCCOc1ccccc1-2 ? 62 µM

Please do the same for C=CCCCCOc1ncc(-c2cc(F)c(F)cc2OC)n1C as well. 40 µM

Entry Cn1c2cnc1NC(=O)CCCCCCCCCOc1ccccc1-2 please 61 µM

Request: C=CCCCCOc1ccc(OC)cc1-c1cnc(OCCC=C)n1C 43 µM

Note, next up: C=CCCCCOc1nccn1C > 100 µM

Quick one: C=CCCCCOc1ncc(-c2cc(C(C)C)ccc2OC)n1C 9 µM

Check C=CCCOc1ccccc1-c1cnc(S(=O)(=O)c2ccccc2)n1C too. 42 µM

What about this molecule? Cn1c2cnc1OCCCCCCCCCCCOc1ccccc1-2 36 µM

Further, for C=CCCCCOc1cc2ccccc2cc1-c1cnc(OCCC=C)n1C ? 14 µM

Lookup COc1ccc(C)cc1-c1cnc(OCCCCc2ccccc2)n1C 43 µM

And the next one, C=CCCCCOc1ncc(-c2cccc(OC)c2OC)n1C ? 36 µM
